Molecular target: Avi-KRAS G12D (1-169) GppNHp/RAF1 RBD-3xFLAG (52-151) (Homo sapiens, UniProt P01116, G12D)
Construct: Avi-KRAS G12D (1-169)
Sequence (P01116 1-169 isoform P01116-2 G12D): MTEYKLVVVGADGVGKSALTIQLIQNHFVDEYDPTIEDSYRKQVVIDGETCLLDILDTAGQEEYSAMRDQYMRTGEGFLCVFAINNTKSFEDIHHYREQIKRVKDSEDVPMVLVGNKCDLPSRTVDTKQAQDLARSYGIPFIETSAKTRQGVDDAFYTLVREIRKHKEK
Assay: Raf1-KRAS G12D-GppNHP disruption HTRF assay (Biological Example 1)
Format: binding
Conditions: KRAS G12D-GppNHp/RAF1 RBD HTRF
# reported IC50; entries follow

CCN(c1nc(OC[C@@]23CCCN2C[C@H](F)C3)nc2c(F)c(-c3ccc(F)c4sc(N)c(C#N)c34)c(C(F)(F)F)cc12)[C@@H]1CCN(C(=O)C2CC2)[C@@H]1C [Compound 406] :: 100 to 1000 nM

--- query ---
// returns reported IC50 for input CN(C)C(=O)[C@@H]1CC[C@@H](N(C)c2nc(OC[C@@]34CCCN3C[C@H](F)C4)nc3c(F)c(-c4ccc(F)c5sc(N)c(C#N)c45)c(C(F)(F)F)cc23)C1 (atropisomer, axis not shown) [Compound 512]
100 to 1000 nM

* * *

Test system: AsPC-1 cells (KRAS G12D)
Test: Cell-based pERK HTRF assay in AsPC-1 cells (Biological Example 5)
Details: Homo sapiens, ASPC1, AsPC-1 (KRAS G12D) cells
readout_kind: IC50

The following molecules have reported results that may help.
CCN(c1nc(OC[C@@]23CCCN2C[C@H](F)C3)nc2c(F)c(-c3ccc(F)c4sc(N)c(C#N)c34)c(C(F)(F)F)cc12)[C@H]1CC(=O)N2CCC[C@@H]12 (atropisomer, axis not shown; (aS)) [Compound 697] :: ≤ 100 nM
CCN(c1nc(OC[C@@]23CCCN2C[C@H](F)C3)nc2c(F)c(-c3ccc(F)c4sc(N)c(C#N)c34)c(C(F)(F)F)cc12)[C@H]1C[C@H](C)N(C(=O)C2CC2)C1 [Compound 470] :: ≤ 100 nM

Tell me the measured IC50 of N#Cc1c(N)sc2c(F)ccc(-c3c(C(F)(F)F)cc4c(N5CC6CC(C5)O6)nc(OC[C@@]56CCCN5C[C@H](F)C6)nc4c3F)c12 (single isomer, unassigned) [Compound 275] , please.
100 to 1000 nM

* * *

Molecular target: Avi-KRAS G12D (1-169) GppNHp/RAF1 RBD-3xFLAG (52-151) (Homo sapiens, UniProt P01116, G12D)
Construct: Avi-KRAS G12D (1-169)
Assay: Raf1-KRAS G12D-GppNHP disruption HTRF assay (Biological Example 1)
Type: binding
Details: KRAS G12D-GppNHp/RAF1 RBD HTRF
readout_kind: IC50

CCN(c1nc(OC[C@@]23CCCN2C[C@H](F)C3)nc2c(F)c(-c3ccc(F)c4sc(N)c(C#N)c34)c(C(F)(F)F)cc12)[C@H]1C[C@H](C)N(C(=O)N(C)C)C1 (atropisomer, axis not shown) :: < 100 nM

Find the recorded IC50 belonging to CCN(c1nc(OC[C@@]23CCCN2C[C@H](F)C3)nc2c(F)c(-c3ccc(F)c4sc(N)c(C#N)c34)c(C(F)(F)F)cc12)[C@@H]1C[C@H]2CCC(=O)N2C1 (atropisomer, axis not shown) and report it.
100 to 1000 nM

* * *

Molecular target: Avi-KRAS G12R (1-169) GppNHp/RAF1 RBD-3xFLAG (52-151) (Homo sapiens, UniProt P01116, G12R)
Construct: Avi-KRAS G12R (1-169)
Sequence (P01116 1-169 isoform P01116-2 G12R): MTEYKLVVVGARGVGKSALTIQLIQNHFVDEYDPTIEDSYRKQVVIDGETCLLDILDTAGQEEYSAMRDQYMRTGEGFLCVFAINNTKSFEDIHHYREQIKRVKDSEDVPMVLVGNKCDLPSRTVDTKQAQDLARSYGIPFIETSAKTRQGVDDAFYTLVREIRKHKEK
Assay: Raf1-KRAS G12R-GppNHP disruption HTRF assay (Biological Example 1)
Assay type: binding
Details: KRAS G12R, GppNHp-loaded; Table 11
Protocol: A protein:protein interaction (PPI) Homogeneous Time Resolved Fluorescence (HTRF) assay was used to determine the effectiveness of compounds of the present disclosure in disrupting KRAS protein and effector RAF1 binding. The assay buffer included: 50 mM Tris pH 7.5, 100 mM NaCl, 5 mM MgCl2, 0.1% BSA, 0.01% Tween, and 10% DMSO. The bead buffer included: 50 mM Tris pH 7.5, and 0.01% Tween 20. […] Data was reported as percentage of activity, with DMSO as 100%. Data was plotted and analyzed using Prism 8.
pIC50: −log10 of the molar value.
Each entry below carries its recorded pIC50.

What measured pIC50 goes with CN1CCN(c2nc(OC[C@@]34CCCN3C[C@H](F)C4)nc3c(F)c(-c4ccc(F)c5sc(N)c(C#N)c45)c(C(F)(F)F)cc23)CC1=O ?
5.00 to 6.00

Look up pIC50 for this compound: CCN(CCO)c1nc(OC[C@@H]2C[C@@H](OC)CN2C)nc2c(F)c(-c3ccc(F)c4sc(N)c(C#N)c34)c(C(F)(F)F)cc12
6.00 to 7.00

* * *

Target: Avi-KRAS G12R (1-169) GppNHp/RAF1 RBD-3xFLAG (52-151) (Homo sapiens, UniProt P01116, G12R)
Construct: Avi-KRAS G12R (1-169)
Test: Raf1-KRAS G12R-GppNHP disruption HTRF assay (Biological Example 1)
Assay type: binding
Conditions: KRAS G12R, GppNHp-loaded; class symbols
pIC50: −log10 of the molar value.
The molecules listed here are annotated with their pIC50.

CCN(c1nc(OC[C@@]23CCCN2C[C@H](F)C3)nc2c(F)c(-c3ccc(F)c4sc(N)c(C#N)c34)c(C(F)(F)F)cc12)[C@H]1CCN(C(=O)N2CC(OC)C2)[C@@H]1C (atropisomer, axis not shown) :: > 7.00

Can you look up pIC50 on Avi-KRAS G12R (1-169) GppNHp/RAF1 RBD-3xFLAG (52-151) (Homo sapiens, UniProt P01116, G12R) for CC1c2cc(C(=O)N(C)C)nn2CCN1c1nc(OCC23CCCN2CC(F)C3)nc2c(F)c(-c3ccc(F)c4sc(N)c(C#N)c34)c(C(F)(F)F)cc12 (stereo not drawn) [Compound 568] ?
6.00 to 7.00

I'm curious: which pIC50 was measured for N#Cc1c(N)sc2c(F)ccc(-c3c(C(F)(F)F)cc4c(N5CC6CC(C5)O6)nc(OC[C@]56C[C@@H](F)CN5CC5(CC5)C6)nc4c3F)c12 tested on Avi-KRAS G12R (1-169) GppNHp/RAF1 RBD-3xFLAG (52-151) (Homo sapiens, UniProt P01116, G12R)?
5.00 to 6.00

* * *

Target: Avi-KRAS G12D (1-169) GppNHp/RAF1 RBD-3xFLAG (52-151) (Homo sapiens, UniProt P01116, G12D)
Construct: Avi-KRAS G12D (1-169)
Experiment: Raf1-KRAS G12D-GppNHP disruption HTRF assay (Biological Example 1)
Type: binding
Conditions: KRAS G12D, GppNHp-loaded; class symbols
pIC50: −log10 of the molar value.
// pIC50 lookup, one value per entry

Example cases with answers are listed next.
CCN(c1nc(OC[C@@]23CCCN2C[C@H](F)C3)nc2c(F)c(-c3ccc(F)c4sc(N)c(C#N)c34)c(C(F)(F)F)cc12)[C@@H]1C[C@@H](C)N(C(=O)C2COC2)C1 (atropisomer, axis not shown) :: 6.00 to 7.00
CCN(c1nc(OC[C@@]23CCCN2C[C@H](F)C3)nc2c(F)c(-c3ccc(F)c4sc(N)c(C#N)c34)c(C(F)(F)F)cc12)[C@H]1CCN(C(=O)N2CC(OC)C2)[C@@H]1C (atropisomer, axis not shown) :: > 7.00
CCN(c1nc(OC[C@@]23CCCN2C[C@H](F)C3)nc2c(F)c(-c3ccc(F)c4sc(N)c(C#N)c34)c(C(F)(F)F)cc12)[C@H]1CCN(C(=O)[C@@H]2C[C@H]2C)C1 (atropisomer, axis not shown) :: > 7.00
C=C(F)C(=O)N1CC[C@@H](N(C)c2nc(OC[C@@]34CCCN3C[C@H](F)C4)nc3c(F)c(-c4ccc(F)c5sc(N)c(C#N)c45)c(C(F)(F)F)cc23)[C@H]1C :: 6.00 to 7.00
CCN(c1nc(OC[C@]23C[C@@H](F)CN2CC2(CC2)C3)nc2c(F)c(-c3ccc(F)c4sc(N)c(C#N)c34)c(C(F)(F)F)cc12)[C@H]1CCN(C(=O)C(C)C)C1 :: 6.00 to 7.00
CCN(c1nc(OC[C@@]23CCCN2C[C@H](F)C3)nc2c(F)c(-c3ccc(F)c4sc(N)c(C#N)c34)c(C(F)(F)F)cc12)[C@H]1CCN(C(=O)OCCF)C1 (atropisomer, axis not shown) :: > 7.00

Data request, read-out pIC50, for CCN(c1nc(OC[C@@]23CCCN2C[C@H](F)C3)nc2c(F)c(-c3ccc(F)c4sc(N)c(C#N)c34)c(C(F)(F)F)cc12)[C@H]1CCN(C(C)=O)[C@@H]1C (atropisomer, axis not shown)
> 7.00

Item under review: CN(C)C(=O)N1CC[C@H](N(C)c2nc(OC[C@@]34CCCN3C[C@H](F)C4)nc3c(F)c(-c4ccc(F)c5sc(N)c(C#N)c45)c(C(F)(F)F)cc23)C1 (atropisomer, axis not shown) . Reported pIC50?
> 7.00

Reported pIC50 for CCN(c1nc(OC[C@@]23CCCN2C[C@H](F)C3)nc2c(F)c(-c3ccc(F)c4sc(N)c(C#N)c34)c(C(F)(F)F)cc12)[C@H]1CCN(C(=O)C2CC2(F)F)C1 (stereo partly drawn) : what is it?
> 7.00
